- Test system: human bronchial epithelial cells, CFTR corrector, plate reader
- test details: rescue of ΔF508 CFTR function, airway epithelium – human bronchial epithelial cells, plate reader, cherry-pick, two tests, dose response (AID 743267)
- stated conditions: measured here: test 2 replicate run
measurement kind: AC50 (µM)
Number only, in µM; omit the unit.

These solved cases illustrate the format of a correct answer.
CCc1ccccc1N(C)S(=O)(=O)c1ccc(-c2cc(C)no2)s1 :: 6.87
CCOC(=O)c1oc2ccc(S(=O)(=O)n3nc(-c4ccccc4)cc3N)cc2c1C :: 6.82

Could you now consider this next compound?
Request body: readout AC50, system human bronchial epithelial cells, CFTR corrector, plate reader, query `COc1ccccc1NC(=S)N(Cc1ccco1)Cc1cc2cc(C)cc(C)c2[nH]c1=O` . Return the value.
7

---

- System: human bronchial epithelial cells, CFTR corrector, plate reader
- test details: rescue of ΔF508 CFTR function, airway epithelium – human bronchial epithelial cells, plate reader, cherry-pick, two tests, dose response (AID 743267)
- stated conditions: measured here: test 2 replicate run
In this section we review reported AC50 values for a set of compounds.
Record the value in µM, omitting the unit from your answer.

C[C@@H]1O[C@@H](O[C@@H]2C=C3CC[C@@H]4C(CC[C@]5(C)[C@@H](c6ccc(=O)oc6)CC[C@]45O)[C@@]3(C)CC2)[C@H](O)[C@H](O)[C@H]1O (some centres undefined) :: 1.42
CC(C)(C)C1COc2ccccc2N1C(=O)c1cccc(Cl)c1 (centres undefined) :: 1.63
COc1ccc(C2=NOC(C(=O)NCc3ccccc3)C2)cc1 (centres undefined) :: 2.42
Cc1nnc(NC(=O)CSc2nccn2-c2cccc(C)c2C)s1 :: 7.08

Find the recorded AC50 belonging to `O=Cc1ccccc1OCc1ccc2c(c1)OCO2` and report it.
14.5

What AC50 value was documented for this compound, `Cc1cccc(OCCNC(=O)c2ccc(Cl)c(S(=O)(=O)NCc3cccnc3)c2)c1` ?
1.97

# lookup: AC50 of CC1=Nc2cc(C(=O)NCC3CCCO3)ccc2Sc2ccc(C)cc21 (centres undefined)
2.57

What does the record list as AC50 for `O=c1[nH]c(CN2CCN(c3ccc(O)cc3)CC2)nc2scc(-c3ccc(Cl)cc3)c12` ?
6.45

Bench note: what AC50 did `O=C(CSC1=NCCN1)Nc1cccc([N+](=O)[O-])c1` show?
14.1

Name the recorded AC50 for `C[C@@H](N)Cc1cnc[nH]1` .
20.1

Data request, read-out AC50, for `Cc1cc2c(cc1S(=O)(=O)Nc1ccc(F)cc1)n(C)c(=O)c(=O)n2C`
43.2

What measured AC50 goes with COc1ccccc1C1CC(=O)Nc2cc3c(cc21)OCCO3 (centres undefined) ?
1.96

Which AC50 is listed for `O=c1c2ccccc2sc2c(CO)ccc(NCCN3CCCCC3)c12` ?
5.18

GET /values?readout=AC50&item= `NC(=O)N=Nc1c2[nH]c3ccccc3nc-2c2ccccc12`
8.41

What value of AC50 has been recorded for this entry: `COc1ccccc1/C=N/NC(=O)c1cc2c(OC)c(OC)ccc2[nH]1`
0.802

What value of measured AC50 is listed for CC/C=C/CC(=O)N[C@@H](c1ccccc1)[C@@H](O)C(=O)O[C@H]1C[C@@]2(O)[C@@H](OC(=O)c3ccccc3)C3[C@](C)(C(=O)[C@H](OC(C)=O)C(=C1C)C2(C)C)[C@@H](O)C[C@H]1OC[C@@]31OC(C)=O (some centres undefined) ?
3.4

Data request, read-out AC50, for `Cn1cc(C(=O)N/N=C/c2ccc3c(c2)OCO3)c2ccccc21`
9.88

Suppose we examine the compound `COc1cc(-c2noc(C)c2C#Cc2ccsc2)cc(OC)c1OC` ; what AC50 value has been reported?
0.537

Field request: AC50 | item: O=[N+]([O-])c1ccc(/C=C/C2=NN(c3ccccc3)C(c3ccco3)C2)o1 (centres undefined)
18.1

Query: AC50; subject: `CC(=NNC(=O)c1ccncc1)c1ccc2ccccc2c1O`
7.94

# lookup: AC50 of `CN(C[C@H](Cc1ccccc1)N(C[C@H](Cc1ccccc1)N(CCC(C)(C)C)N=O)N=O)N=O`
47.9

Entry under review: `COc1ccccc1Nc1c2c(nc3ccccc13)CCC2` . Reported AC50?
6.89

---

- System: human bronchial epithelial cells, CFTR corrector, plate reader
- test details: rescue of ΔF508 CFTR function, airway epithelium – human bronchial epithelial cells, plate reader, cherry-pick, two tests, dose response (AID 743267)
- stated conditions: measured here: test 2 replicate run
Define the label as TRUE when AC50 is strictly less than 5 µM and as FALSE in all remaining cases.

COc1cc(/C=C2/SC(=Nc3ccc(O)cc3)NC2=O)cc(OC)c1O :: FALSE

Consider `COc1ccc(OC)c(-c2cnc(OC(C)(C)C)nc2OC(C)(C)C)c1` . Does its AC50 lie strictly below 5 µM?
FALSE

Determine whether this compound shows AC50 lower than 5 µM (ties excluded): `Cc1ccc(S(=O)(=O)N2C[C@H]3[C@H]4C(=O)N(C)C(=O)[C@H]4CC(=O)[C@H]3[C@@H]2c2ccccc2F)cc1`
FALSE

Item `Cc1cc(NCc2ccccn2)n2ncc(-c3ccccc3)c2n1` : AC50 beneath 5 µM, strictly?
FALSE

hey, is AC50 for `COc1cc(C(=O)OCCc2cc3ccccc3c(=O)o2)cc(OC)c1OC` lower than 5 µM or not?
TRUE

Quick check: does `COc1ccc(-c2oc3ccc(-c4cc(OC)c(OC)c(OC)c4)cc3c2C#Cc2ccccn2)cc1` have AC50 under 5 µM?
FALSE

In plain terms, does `c1ccc(CCN(Cc2ccccc2)Cc2nc(C3CC3)no2)cc1` come in under 5 µM for AC50?
FALSE

Strictly below 5 µM: is that where AC50 of `CN(C)CCNC(=O)c1ccc(Cl)c2cc3ccccc3nc12` sits?
FALSE

Is the reported AC50 for `COc1cc(C(=O)Nc2ccc(C)cc2)c2ccccc2n1` strictly below 5 µM?
TRUE

Answer whether the compound `COc1ccc(-c2cnc3c(NC=O)cc(-c4ccccc4)cn23)cc1OC` has AC50 strictly less than 5 µM
TRUE

---

Reported AC50 values for a set of compounds
- Tested on: human bronchial epithelial cells, CFTR corrector, plate reader
- test details: rescue of ΔF508 CFTR function, airway epithelium – human bronchial epithelial cells, plate reader, cherry-pick, two tests, dose response (AID 743267)
- stated conditions: measured here: test 2 replicate run
Numeric only. Scale: µM

COc1ccc([C@H]2CC(=O)C=C(c3c(OC)cccc3OC)C2)cc1 :: 6.28

State the recorded AC50 for this entry: `CCOc1ccc(C)cc1S(=O)(=O)n1cnc2ccccc21`
8.08

What measured AC50 goes with CC1=Nc2cc(C(=O)NCC3CCCO3)ccc2Sc2ccc(Br)cc21 (configuration not stated) ?
9.45

What measured AC50 goes with `O=C1/C(=C\c2ccc(O)cc2)SC(=S)N1Cc1ccccc1` ?
20.5

---

- Tested on: human bronchial epithelial cells, CFTR corrector, plate reader
- test details: rescue of ΔF508 CFTR function, airway epithelium – human bronchial epithelial cells, plate reader, cherry-pick, two tests, dose response (AID 743267)
- stated conditions: measured here: test 2 replicate run
measurement kind: AC50 (µM)
Enter your answer as a number in µM; do not include the unit.

Below: 3 molecules and their reported AC50.
CC1CCN(C(=O)C2COc3ccccc3O2)CC1 (centres undefined) :: 35.1
O=C(O)c1ccccc1-c1c2cc(I)c(=O)c(I)c-2oc2c(I)c(O)c(I)cc12 :: 16.7
COc1cc(C(=O)Nc2ccc3c(c2)ncn3C)cc(OC)c1OC :: 3.9

The record that follows has no AC50 shown yet.
Give the measured AC50 of N#CC1c2ccccc2-c2ccccc2N1C(=O)c1ccccc1 (centres undefined) .
4.85

---

- System: human bronchial epithelial cells, CFTR corrector, plate reader
- test details: rescue of ΔF508 CFTR function, airway epithelium – human bronchial epithelial cells, plate reader, cherry-pick, two tests, dose response (AID 743267)
- stated conditions: measured here: test 2 replicate run
Listing: AC50 of selected compounds
Dear colleague, please return just the value in µM, with no unit written.

COc1ccc(NC(=O)c2nc(C)c(C3(C)CC(c4cccnc4)=NO3)s2)cc1 (configuration not stated) :: 2.75
COC(=O)COc1cccc2c(=O)n(CC(=O)NCc3ccccc3)ccc12 :: 5.25
COc1cccc(-c2cc3nc(-c4ccccc4)cc(=O)n3[nH]2)c1 :: 2.35
COC(=O)c1cn(C(=O)c2ccc(C)cc2C)c2ccccc12 :: 7.53

Let us examine a further case.
Give recorded AC50 with human bronchial epithelial cells, CFTR corrector, plate reader for the following compound: CCN1CCCC(OC(=O)c2cc(-c3ccccc3Cl)nc3ccccc23)C1 (configuration not stated)
43.9

---

- Test system: human bronchial epithelial cells, CFTR corrector, plate reader
- test details: rescue of ΔF508 CFTR function, airway epithelium – human bronchial epithelial cells, plate reader, cherry-pick, two tests, dose response (AID 743267)
- stated conditions: measured here: test 2 replicate run
// assign fulfilled if AC50 falls strictly below 1000 nM, else not fulfilled (ties count as not fulfilled)

Consider the worked cases shown below.
CN1C(=O)c2cccc3c(N)ccc(c23)C1=O :: not fulfilled
Cc1ccc(NC(=O)c2ccc(Cl)c(S(=O)(=O)Nc3c(C)n(C)n(-c4ccccc4)c3=O)c2)cc1Cl :: not fulfilled
COC(=O)c1cc(C(=O)N2CCN(c3cccc(Cl)c3)CC2)cc([N+](=O)[O-])c1 :: fulfilled
CCN(CC)C(=O)c1oc2ccc(S(=O)(=O)N3CC(C)CC(C)C3)cc2c1C (centres undefined) :: not fulfilled
COc1cccc(C(=O)Nc2sc3c(c2C#N)CCN(C(C)=O)C3)c1 :: not fulfilled

Could you please tell me whether AC50 recorded for `CCN(CC)CCn1nc2c3c(cccc3c1=O)-c1ccccc1-2` is less than 1000 nM?
not fulfilled

Does `COc1cc(/C=C2/SC(=S)N(Cc3ccccc3)C2=O)cc(Cl)c1O` have AC50 strictly under 1000 nM?
not fulfilled

In the record for `COc1ccc(C)cc1Nc1c2c(nc3ccccc13)CCC2` , is AC50 less than 1000 nM?
fulfilled

Field: below-cutoff. Rule: recorded AC50 strictly less than 1000 nM. Subject: O=C(NCc1ccccc1)C1Cc2c(-c3ccc(Cl)cc3)ccnc2O1 (centres undefined)
not fulfilled
